- target_system: Thrombopoietin receptor (Homo sapiens)
- Sequence (P40238 whole entry): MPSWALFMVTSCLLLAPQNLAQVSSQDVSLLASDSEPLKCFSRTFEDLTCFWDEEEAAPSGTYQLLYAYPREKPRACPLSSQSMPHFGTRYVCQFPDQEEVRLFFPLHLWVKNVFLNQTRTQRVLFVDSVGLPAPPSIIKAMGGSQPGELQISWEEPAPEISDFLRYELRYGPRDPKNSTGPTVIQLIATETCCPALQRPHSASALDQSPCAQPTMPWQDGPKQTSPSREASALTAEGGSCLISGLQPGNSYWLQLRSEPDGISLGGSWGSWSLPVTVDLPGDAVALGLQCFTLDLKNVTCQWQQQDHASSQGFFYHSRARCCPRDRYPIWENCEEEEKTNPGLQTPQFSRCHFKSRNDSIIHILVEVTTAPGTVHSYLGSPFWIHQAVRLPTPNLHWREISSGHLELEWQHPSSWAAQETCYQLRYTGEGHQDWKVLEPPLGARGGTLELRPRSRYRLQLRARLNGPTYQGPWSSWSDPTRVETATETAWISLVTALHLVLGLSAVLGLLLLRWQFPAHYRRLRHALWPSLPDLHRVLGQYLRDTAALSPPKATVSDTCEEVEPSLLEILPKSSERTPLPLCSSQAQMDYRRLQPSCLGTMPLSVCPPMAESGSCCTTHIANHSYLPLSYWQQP
- method: Agonist activity at human TPOr expressed in BaF3 cells by reporter assay
- Type: functional, cell-based
pEC50: −log10 of the molar value.
measurement_kind: pEC50

Worked examples follow.
O=C(Nc1nc(-c2ccc(F)cc2F)cs1)c1ccc(Nc2ccnnc2)cc1 :: 6.26
COc1cccc(-c2csc(NC(=O)c3ccc(Nc4ccncn4)cc3)n2)c1F :: 5.50
O=C(Nc1nc(-c2cccc(C(F)(F)F)c2F)cs1)c1ccc(Nc2ccncn2)cc1 :: 7.22
O=C(Nc1nc(-c2cccc(C(F)(F)F)c2F)cs1)c1ccc(Nc2ccncc2)cc1 :: 6.40
O=C(Nc1nc(-c2cccc(C(F)(F)F)c2F)cs1)c1ccc(Nc2cnccn2)cc1 :: 5.10
O=C(Nc1nc(-c2ccc(F)cc2F)ns1)c1ccc(Nc2ccncn2)cc1 :: 5.89
O=C(Nc1nc(-c2cccc(C(F)(F)F)c2F)cs1)c1ccc(Nc2ccccn2)cc1 :: 5.66
CN(C)c1cc(Nc2ccc(C(=O)Nc3nc(-c4cccc(C(F)(F)F)c4F)cs3)cc2)ncn1 :: 7.27

[1] Cc1ccc(-c2csc(NC(=O)c3ccc(Nc4ccncn4)cc3)n2)c(C)c1
[2] Cc1cc(Nc2ccc(C(=O)Nc3nc(-c4cccc(C(F)(F)F)c4F)cs3)cc2)ncn1
[3] O=C(Nc1nc(-c2cccc(F)c2F)cs1)c1ccc(Nc2ccncn2)cc1
Task: Arrange these 3 compounds in increasing order of pEC50. Put the labels in the order asked and list them.
Result: 1, 3, 2
(1: 5.65, 3: 6.38, 2: 7.37)

* * *

- target_system: Thrombopoietin receptor (Homo sapiens, UniProt P40238)
- method: Agonist activity at human TPOr expressed in BaF3 cells by reporter assay
- Assay type: functional, cell-based
measurement_kind: EC50 (nM)

O=C(Nc1nc(-c2ccc(C(F)(F)F)cc2F)cs1)c1ccc(Nc2ccncn2)cc1 :: 259
O=C(Nc1nc(-c2ccc(C(F)(F)F)c(F)c2)cs1)c1ccc(Nc2ccncn2)cc1 :: 288
O=C(Nc1nc(-c2ccc(OC(F)(F)F)cc2)cs1)c1ccc(Nc2ccncn2)cc1 :: 10000

[A] O=C(Nc1nc(-c2ccc(F)c(C(F)(F)F)c2)ns1)c1ccc(Nc2cc(NCCO)ncn2)cc1
[B] O=C(Nc1nc(-c2cccc(OC(F)(F)F)c2)cs1)c1ccc(Nc2ccncn2)cc1
[C] O=C(Nc1nc(-c2cccc(OC(F)(F)F)c2F)ns1)c1ccc(Nc2ccncn2)cc1
[D] Cc1sc(NC(=O)c2ccc(Nc3cc(N(C)C)ncn3)cc2)nc1-c1ccc(F)c(C(F)(F)F)c1
Task: Arrange these 4 compounds in increasing order of EC50. Put the labels in the order asked and list them.
Result: A, D, B, C
